Reference source for all entries: PubChem BioAssay (NCI)

Would you mind telling me the reported TGI of each entry?
system: HCT-116 colon; assay: NCI tumour cell line growth inhibition, 48 h
Answers are plain numbers, in µM.

Consider the following illustrative entries.
CNC(=S)OCCC(C)CCCC(C)C (configuration not stated) | 30.7
NS(=O)(=O)OC[C@@H]1C[C@@H](n2ccc3c(NC4CCc5ccccc54)ncnc32)C[C@@H]1O (some centres not stated) | 5.46

# input compound: O=C(CCNC12CC3CC(CC(C3)C1)C2)c1ccccc1 ; wanted: its TGI
29.4

* * *

tested on: SR leukemia; assay: NCI tumour cell line growth inhibition, 48 h
Would you mind telling me the reported TGI of each entry?

O=C1/C(=C/c2ccc(O)c(O)c2)CCC/C1=C\c1ccc(O)c(O)c1 | > 89.8 µM
COc1ccc(N/N=C2\CCOc3ccc(C)cc3C2=O)cc1 | > 100 µM
CCOC(=O)Cn1c(C(F)(F)F)nc2nc(Cl)c(Cl)nc21 | > 100 µM

For the 2 compounds below, give their TGI values.
1. Cc1nc2n(c1/C=C1/C(=O)Nc3cccc(Cl)c31)CCS2
2. CCC(C(=O)O)c1ccc(OC)cc1 (stereo not given)

1. > 100 µM
2. > 100 µM

* * *

tested on: ACHN renal; experiment: NCI tumour cell line growth inhibition, 48 h
Assay readout: TGI (µM)
One number for each entry, in µM.

Consider the following illustrative entries.
CCCCCCCCCCCCCCNC(=O)CCC(NC(=O)c1ccc(N(C)Cc2cnc3nc(N)nc(N)c3n2)cc1)C(=O)NCCCCCCCCCCCCCC (stereo unspecified) | 30.1
O=C1/C(=C/c2ccc(O)c(O)c2)CCC/C1=C\c1ccc(O)c(O)c1 | 11
O=C(Nc1ccc(F)cc1)Nc1ccc(Cl)c([N+](=O)[O-])c1 | 11

Here is another molecule to look at.
# input molecule: C=CCO[C@H]1CO[C@H]2[C@@H]1OC[C@@H]2Oc1ccc(Nc2ccnc(Nc3ccc(O[C@H]4CO[C@H]5[C@@H]4OC[C@@H]5OCC=C)c(Cl)c3)n2)cc1Cl ; wanted: its TGI
3.31

* * *

tested on: EKVX NSCLC; test: NCI tumour cell line growth inhibition, 48 h
Would you mind telling me the reported TGI of each entry?

CC(=O)NC(Cc1ccc(O)cc1)C(=O)O (configuration not stated) | > 100 µM
NC1=NCCC1(c1ccccc1)c1ccccn1 (configuration not stated) | > 100 µM
CN(C)N=Nc1ccc(C(N)=O)cc1 | > 100 µM

For the 6 compounds below, give their TGI values.
1. CC(=O)OC1CC(OC2C(O)CC(OC3C(O)CC(OC4CCC5(C)C(CCC6C5CC(O)C5(C)C(C7=CC(=O)OC7)CCC65O)C4)OC3C)OC2C)OC(C)C1OC1OC(CO)C(O)C(O)C1O (configuration not stated)
2. COc1ccc(COCCOCc2nc(C#N)c(N)o2)cc1
3. NC(=O)NO.O.O.O.O.O.O.O.O.O.O.O.[Ge].[Ge].[Ge].[Ge].[Ge].[O]=[Ge].[O]=[Ge].[O]=[Ge].[O]=[Ge].[O]=[Ge][OH]
4. C=CC(=O)Nc1cc(Nc2ncc(C(=O)OC(C)C)c(-c3cn(C)c4ccccc34)n2)c(OC)cc1N(C)CCN(C)C
5. CC1(C)N=[N+]([O-])C1(C)C
6. CNS(=O)(=O)NNS(=O)(=O)c1ccccc1

0.0981 µM
> 100 µM
> 100 µM
13.6 µM
> 100 µM
> 100 µM

For the 3 compounds below, give their TGI values.
1. CCN(CC)N=Nc1c(C(N)=O)n[nH]c1C
2. Cc1nc2n(c1/C=C1/C(=O)Nc3cccc(Cl)c31)CCS2
3. O=C(CCN1CCCCC1)C(=Cc1ccccc1)C(=O)CCN1CCCCC1

1. > 100 µM
2. > 100 µM
3. > 100 µM
